B1: F1*; the commonest letter at each place (parent)
chain: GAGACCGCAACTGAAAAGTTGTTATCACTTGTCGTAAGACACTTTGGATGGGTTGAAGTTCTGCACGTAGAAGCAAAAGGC

variants of: B1; assay: fraction ligated after 30 min (ligated reads / total reads); higher = more ligase activity; details: with F1*sub RNA substrate (template-directed ligation), 42 °C

# mutation_notation, fraction ligated
rows = [
    ("A27T A41T", 0.779),
    ("G31A G47A", 0.54),
    ("G46A A56C", 0.483),
    ("C26A T44A", 0.792),
    ("T23C G34C", 0.774),
    ("T30A A41G", 0.798),
    ("T23A G38T", 0.795),
    ("T30G T49A", 0.739),
    ("G34A A37C", 0.835),
    ("C40T A48G", 0.784),
    ("A36C T49G", 0.798),
    ("A37T G50T", 0.793),
    ("G46C A56T", 0.447),
    ("T25G T44C", 0.741),
    ("G46T G47A", 0.769),
    ("T25G G38C", 0.165),
    ("C33A T43G", 0.799),
    ("A36C G47T", 0.356),
    ("G38A G46C", 0.792),
    ("T23C A27T", 0.804),
    ("T32A G47A", 0.597),
    ("T30C A39T", 0.764),
    ("C33T A48T", 0.452),
    ("C40G A56T", 0.805),
    ("A27G A37G", 0.848),
    ("T25A T30C", 0.218),
    ("G31A C40G", 0.85),
    ("A41T G50T", 0.715),
    ("T30G G31C", 0.845),
    ("T30A A48C", 0.741),
    ("G34T T44A", 0.792),
    ("A27T T45C", 0.762),
    ("T25A A57C", 0.199),
    ("T25C T30C", 0.751),
    ("G34C G46T", 0.762),
    ("T23A G55A", 0.801),
    ("T32A A48G", 0.749),
    ("A27G A56C", 0.767),
    ("T32A A36G", 0.794),
    ("T30C G38A", 0.797),
    ("T23A T45C", 0.222),
    ("G47C A48G", 0.122),
    ("T25C T29A", 0.753),
    ("T30G G34T", 0.796),
    ("T30G T45A", 0.76),
    ("T29G C33T", 0.808),
    ("T29C G38A", 0.803),
    ("C28G A48C", 0.405),
    ("A39C G55C", 0.695),
    ("C33G C42A", 0.826),
    ("G34A T45G", 0.368),
    ("T35G T44C", 0.854),
    ("G46T G47C", 0.0107),
    ("A37G A56T", 0.819),
    ("A27C G46T", 0.78),
    ("G38T G47C", 0.114),
    ("T25A T35C", 0.761),
    ("T32G C40G", 0.813),
    ("A24G T29A", 0.807),
    ("G47A T49C", 0.773),
    ("A27C C33A", 0.827),
    ("T30C A36C", 0.801),
    ("T35A G50C", 0.474),
    ("C40T G55C", 0.782),
    ("T25C A56G", 0.0517),
    ("T45A A57T", 0.794),
    ("C33T G47C", 0.165),
    ("C28A G38T", 0.799),
    ("G31C C33G", 0.794),
    ("C33T T49G", 0.801),
    ("T29G G38A", 0.844),
    ("G31A C33G", 0.824),
    ("A27G A48C", 0.504),
    ("T23C T30A", 0.802),
    ("A24C A41C", 0.00606),
    ("A56T", 0.803),
    ("C28A A48C", 0.477),
    ("A24T A48G", 0.214),
    ("T35G G55C", 0.807),
    ("A36C A57T", 0.844),
    ("T35A A56T", 0.82),
    ("A37C T43G", 0.806),
    ("A27T G47C", 0.0127),
    ("T30G T35G", 0.847),
    ("G34C A36T", 0.832),
    ("A24C G31A", 0.0336),
    ("C26T T30G", 0.861),
    ("G38C A39G", 0.811),
    ("A24C A37G", 0.626),
    ("T30C A39C", 0.765),
    ("T43C G55C", 0.571),
]
